test: yeast display, Sf9 membrane polyspecificity reagent, FACS + sequencing; frameworks hold sequencing errors
experimentalReadout: polyreactivity (PSR sort gate)

QVQLVESGGGVVQAGGSLRLSCAASGFIYRWNAMGLNRQAPGKERELVAAMSARGGSTYDADSVKGRFTIARDNAKNTVYLPMNSLKPEDTAVYYCARAKRVHTEYDYWGQGTQVTVSS high polyreactivity
QDQLVESGGGLVQAGGSLRLSCAASGSTFHLNALGWYRQSPGKERELVAAISRDGSSTSYADSEKGRFTISRDNAKNTVYLQMNSLKPEDTAVFYCAADDTLDRVPSTFIDGSPGYGYWGLGTQVTVSS low polyreactivity
QVQLVESGGGLVQAGGSLRLSCAASGLTFKSYAMGWYRQAPGKERELVAAISWRGGRTYYADSVKGRFTISRDNAKNTVYLQMNSLKPEDTAVYYCNARSQQWWLSRYNYWGQGTQVTVSS high polyreactivity
QVQLVESGGGLVQAGGSLRLSCAASGSIFEGYAMGWYRQAPGKERELVADITSGGSTYYADSVKGRFTISRDNAKNTVYLQMNSLKPEDNAVYYCNRDYHWIELVYPDDRREYDYWGQGTQVTVSS low polyreactivity
QVQLVESGGGLVQAGGSLRLSCAASGGIFGRYAMGWYRQAPGKERELVAGLSYSGGSTYYADSVKGRFTISRDNEKNTVYLQMTSLKAEDTAVYYCAADTRRTYENYYWGQGTQVTVSS high polyreactivity
QVQLVESGGGLVQAGGSLRLSCAASGSISYYAMGWYRQAPGKERELVAAISSSGGSTYYADSVKGRFTISRDNAKNTVYLQMNSLKPEDTAVYYCAAYGRYGAHTGYGSWGQGTQVTVSS high polyreactivity
QVQLVESGGGLVQAGGSLRLSCAASGSTFFCYAMGWYRQAPGKERELVAAISRSGDRTYYADSVKGRFTISRDNAKNTVYLQMKSLKPEDTAVYYCAAKGFKPSDWGQGTQVTVSS high polyreactivity
QVQLVESGGGLVQAGGSLRLSCAASGRTFNVYAMGWYRQAPGKERELVAAISIGGRTNYADSVKGRFTISRDNAKNTVYLQMNSLKPEDTAVYYCAADTRRKYGGMYYWGQGTQVTVSS high polyreactivity
QVQLVESGGGLVQAGGSRRLSCAASGSIFPQYAMGWYRQAPGKERELVAAITWSGSRTRYADSVKGRFTMSRDTAKNTGYLQMNSLKPEDTAVYDCAARFNGQTYYYWGQGTQVTLSS high polyreactivity
QVQLVESGGGLVQAGGSLRLSCAASGSIFPGYAMGWDRQAPGKERQLVATITWSGGSTYYADSVKGRFTISRDNAKNTVYLQMNSLKPEDTAVYYCIADSNWYYQWNYYGLYDYWGQGTQVTVSS low polyreactivity

*Q* Any idea what its polyreactivity (PSR sort gate) is? The sequence is QVQLVESGGGLVQAGGSLRLSCAASGSIFHYYAMGWYRQAPGKERELVAAINSTGGSRTYYADSVKGRFTISRDNAKNTVYLRMNCLKPEDTAVYYCAADYRVVWRAYDYWGQGTQVTVSS
*A* low polyreactivity

*Q* Same again, this time with QVQLVESGGGLVQAGGILRLSCAASGYIFVRNAMGWYRQAPGKERELVAAISGSGGSTYYADSVKGRFTISRDNAKNTVYLQMNRLKPEDTEVYYCAADYATVTWRGIAYDYWGQGTQVTVSS
*A* low polyreactivity

*Q* And QVQLVESGGGLVQAGGSLRLSCAASGSIFWSYAMGWYRQAPGKERELVASISRSTGRTRYADSVKGRFTISRDNAKNTVYLQMNSLKPEDTAVYYCAATRRAGFTTAKFDYWGQGTQVTVSS ?
*A* high polyreactivity

###

test: yeast display, Sf9 membrane polyspecificity reagent, FACS + sequencing; frameworks hold sequencing errors
experimentalReadout: polyreactivity (PSR sort gate)

QVQLVDSGGGLVQAGGSLRLSCAASGRIFSVYAMGWYRQAPGNERELVAAITRVGSTNYADSVKGRFTISRDNAKNTVYLQMNSLKPEDTAVYYCAASKYGSLSGYWGQGTQVTVSS high polyreactivity
QVQLVESVGGLVQAGGSLRLSCAASGRIFGWYAMGWYRQAPGKERELVAAITSGGTTYYADSVKGRFTISRDNAKNTVYLQMNSLKPEDTAVYYCAKYHWRLSFSRYPYDYWGQGTQVTVSS high polyreactivity
QVQLVESGGGLVHAGGSLRLSCAASGSTFVRNAMGWYRPAPGKERQLVAAITSRGGSTYYADSVKGRFTISRDNAKNTVYLQMISLKPEDTAVYYCAARFGVKRGQYDYWGQGTQVTVSS high polyreactivity
QVQLVESGGGLVQAVGSLRLSCAASGRTFARNAMGWYRQAPGKERELVAVITSGTSTYYADSVKGRFTISRDYAKNTVYLQMNSLKPEDTAVYYCAARSPGRAGIYYSWGQGTQVTVSS high polyreactivity

###

assay: yeast display, Sf9 membrane polyspecificity reagent, FACS + sequencing; frameworks hold sequencing errors
experimentalReadout: polyreactivity (PSR sort gate)

Reference set (4 entries):
QVQLVESGRGLVQAGGSLRLSCASSGFTLSPNAMRWYRPAPGKEREFVAAISQRGGSTYYADSVKGRFTISRDNAKNTVYLQMNSLKPEDTAVYYCARDTKYKYDFWGQGTQVTVSS low polyreactivity
QVQLVESGGGLVQAVGSLRLSCAASGFTFQHYAMGWYRQAPGNERELVAVISFSGGRTYYADSVKGRFTISRDNAKNTVYLQMNSLKPEDTAVYYCAAVFWDDYGKYYYWGLGTQVTVSS high polyreactivity
QVQLVESGGGLLQAGGSLRLSCAASGFTFGGNAMGWYRQAPGKERELVAAITSRGGSTYYADSVKGRFTISRDNAKNTFYLQMYSLKPEDTAVYYCAAQFTTRYDWGQGTQVTVSS high polyreactivity
QVQLVESGGGLVQAGGSLRISCAASGRTFTRYAMGWYRQAPGKERELVASITTGGRTYYADSVKGRFTISRDNAKNTVYLQMNSLKPEDTAVYYCNADRVYAWYRTYDYWGQGTQVTVSS high polyreactivity

*Q* polyreactivity (PSR sort gate) lookup needed for QVQLVDSGGGLVQAGGSLRLSCAASGSIFYTNAMGWYRQAPGKERELVAAISYGGTTTYADSVKGRFTISRDNAKNTVYLQMNSLKPEDTAVYYCNADWLYYGYWGYGHIWYDYWGQGTQVTVSS , thanks.
*A* low polyreactivity

###

experiment: yeast display, Sf9 membrane polyspecificity reagent, FACS + sequencing; frameworks hold sequencing errors
experimentalReadout: polyreactivity (PSR sort gate)

Use the examples below as a reference point.
QVQLVESGGGLVQAGGSLRLSCAASGFIFYRNTMGWYRQAPGKERELDAAISWSGARTYYADSVKGRFTISRDNAKNTVYLQMNSLKPEDTAVYYCNTVFYLHSTTTNGDYWGQGTQVTVSS high polyreactivity
QVHLVESGGGLVQAGGSLRLSCAASGRTFYSYAMGWYRQAHGKERELVAAINTSGGRKHYADSVKGRFTISRDNAKNTVYLQMNSLKPEDTAVYYCAARYLGGRLSGDYSRYYWGQGTQVTVSS high polyreactivity
QVQLVESGGGLVQAGGSLRLSCAASGSINCSNAMGLYRKAPRKERDLVAAITESGGDTYYADSVKGRFTISRDNAKNTVYLLINSMKPEDTAVYYCAARYFGVIVDVSLFSEYGSWGQGTQVTVSS low polyreactivity
QVQIVESGGGLVQAGGSLRLTCAASGSIFPDYAMGWYRQAPGKERELVASISWDGGSTYYADSVKGRFTISRDNAKNTVYLQMNSLKPEDTAVYYCATELLVGGGFTVDYWGQGTQVTVSS low polyreactivity
QVQLVESGGGLVQAGGSLRLSCAASGSIFYGYTMGWYRQAPGKERELVAAITYRGGRTYYADSVKGRFTISRDNAKNTDYLQMNSLKPEDTAVYYCAARYDYFSSKYGYWGQGTQVTVSS high polyreactivity
QVQLVESGGCLVQAGGSLRLSCAASGSTFKIYAMGWYRQAPWKERELVAAISWRGGRTYYADSVKGRFTISRDNAKNTVYLQMNSLKPEDTAVYYCDKGTRQGLEFWGQGTQVTVSS high polyreactivity

*Q* Recorded polyreactivity (PSR sort gate) of QVQLVESGGGLVQAGGSLRLSCAASGFTFKYYAMGWYRQAPGKERELVAAISSRGGSTYYADSVKGRFTISRDKAKNTVYLQMNSLKPEDTAVYYCAAYYRTGSIWYAIFSDDYWGQGTQVTVSS , please.
*A* high polyreactivity

*Q* Follow-up entry: QVQLVESGGGLVQAGGSLRLSCAASGSTFKSYAMGWYRQAPGKERELVAAITRGGSTNYADSVKGRFTISRDNAKNTVYLQMNSLKPEDTAVYYCAKTYRYRTMDYWGQGTQVTVSS
*A* low polyreactivity

*Q* Try the sequence QVQLVESGGGLVQAGGSLRLSCAASGRIFSLNTLGWYRQAPGKERELVAAINRGGRSYYADSVKGRFTISRDNAKITVNLQMNSLKPEDTAVYYCAAEVVRQGSYRYGYWGQGTQVTVSS
*A* high polyreactivity

*Q* Same for QVQLVESGGGLVQAGGSLRLSCAASGITFAGYAMGWYRQAPGKERELVAAITRGGGITYYADSVKGRFTISRDNAKNTVYLQMNSLKPEDTPVDYCNAVVTSAAGYFPLLYDYWGQGTQVTVSS
*A* high polyreactivity

*Q* Note, next up: QVQLVESGGGLVQAGGSLRLSCAASGRTFGGNTMGWSRQAPGKERELVAAISSGGSTYYADSVKGRFTISRDNAKNTVYLQMNSLKPEDTAVYYCAKSDPVGYYWDDPVTFDYWGQGTQVTVSS
*A* low polyreactivity

*Q* Also check QVQLVESGGGLVQAGGSLRLSCAASGITFEGYAMGWYRQAPGKERELVAAIRSSGTSTYYADSVKGRFTISRDNAKNTVYLQMYSLKPEDTAVYYCNRARSSSRYDYWGQGTQVTVSS
*A* low polyreactivity

*Q* Repeat for the following sequence: QVQLVESGGGLVQAGGSLRLSCAASGSIFPGYAMGWSRQAPGKERELVATISTGGSTYYADSVKGRFTISRDNAKNTVYLQMNSLKPEDTAVYYCNADIRSYLRYSLRRYDDYDYWGQGTQVTVSS
*A* low polyreactivity

*Q* Okay, and QVQLVESGGGLVQAGGSLRLSCAASGFIFKKYAMGWYRQAPGKERELVAAISWSGGNTYYADSVKGRFTISRDNAKNTVYLQMNSLKPEDTAVYYCNAAGRRYKFDYWGQGTQVTVSS ?
*A* high polyreactivity

Value source: the nanobody polyreactivity screen of Harvey et al. (2022)
